Test system: T-47D breast
Assay: NCI-60 one-dose screen, 48 h (100 = growth as untreated, 0 = no growth, -100 = all killed)
Conditions: 10 µM unless noted
About 83,000 compounds went through this panel and 20% of them were active in at least one assay; those are over-represented in the sample as a whole.
So I've got a bunch of compounds here, and I need their growth values.
One number for each entry, in %.

Reference set (3 entries):
>>> print(df.to_string())
                                   compound  recorded_measurement
0  c1n[nH]cc1-c1nc2ccc3[nH]ncc3c2c2c1CC1(CC2)COC1                  26.8
1  O=C(N/N=C/c1ccc(B(O)O)s1)c1[nH]c2ccc(Br)cc2c1-c1ccccc1                   -77
2            O=C(Nc1nc2ccccc2s1)Nc1ccccc1Cl                    68

Each compound below has a recorded value; state its growth.
1. COc1ccc2[nH]c(O)c(N=Nc3nc(-c4ccc(Br)cc4)cs3)c2c1
2. CS(=O)(=O)c1ccc(-n2nc(C(=O)NCc3ccccc3)cc2-c2ccc(Cl)cc2)cc1

A.
-27.2
66.6

Could you report growth for every entry in the following list?
1. COc1ccc2[nH]c(O)c(N=Nc3nc(-c4ccc(C#N)cc4)cs3)c2c1
2. O=C(Cn1c(/C=C/c2ccc([N+](=O)[O-])cc2)nc2ccccc2c1=O)Nc1ccccc1
3. Cc1ccc2c(c1)/C(=C/C(=O)c1cc3ccccc3oc1=O)C(=O)N2
4. CC(=O)c1c2c(c3ccc4c5ccccc5ccc4n13)C(=O)c1ccccc1C2=O
5. Nc1cc(-c2c[nH]c3ccc(Br)cc23)nc2cc(-c3c[nH]c4ccccc34)nn12
6. Oc1ccc(Cl)c(Nc2nc(SCCN3CCOCC3)nc3c2cnn3CC(Cl)c2ccc(Br)cc2)c1 (stereo not given)

A.
1. 54.7
2. 79.9
3. 72.8
4. 92.5
5. -60.5
6. 0

For each listed entry, give its growth.
1. NS(=O)(=O)c1cccc(Nc2nc(SCC(=O)c3ccc(F)cc3)nc3ccccc23)c1
2. CCOC(=O)/C(F)=C/C1CC1C(c1ccccc1)c1ccccc1 (stereo not given)
3. C[C@@H]1CN(c2ccc3ncc(C#Cc4cncc(C(=O)Nc5ccc(CN6CCN(C)CC6)c(C(F)(F)F)c5)c4)n3n2)C[C@@H](C)O1
4. COc1c(B(O)O)cccc1-c1nc2ccc3cn[nH]c3c2c2c1CCCC2
5. Cc1nn(-c2ccccc2)c2ncn(CC(=O)N/N=C/c3ccccc3O)c(=O)c12
6. Cc1ccc(C(C(=O)NC2CCCCC2)N(Cc2ccccc2Cl)C(=O)c2ccc(CN3CCOCC3)o2)o1 (stereo not given)
7. O=C1NC(=S)/C(=C/c2cn(-c3ccccc3)nc2-c2ccccc2)S1

A.
[-7.28, 70.7, -62.6, 70.6, 22.9, 99.9, 0.334]

----------
Tested on: M14 melanoma
Assay: NCI-60 one-dose screen, 48 h
Settings: 10 µM unless noted
About 83,000 compounds went through this panel and 20% of them were active in at least one assay; those are over-represented in the sample as a whole. The source made the active and inactive calls. Rule for the calls: active = growth percent below 10; inactive = the rest.
Please reply with one of these outcomes: 1.0 (active), 0.0 (inactive)

Solved entries (count: 2):
compound	target_system	label
Cc1cc(N=C(N)c2ccccc2)ccc1OCCCCCCCCn1ccnc1	M14 melanoma	1.0
O=C1/C(=C/c2cnc(-c3ccccc3)s2)SC(=S)N1Cc1ccc2c(c1)OCO2	M14 melanoma	0.0

Next up:
Q. Test call, this compound: CN(C)c1nc(NCCNS(=O)(=O)c2ccc(C(=O)/C=C/c3ccccc3)cc2)nc(N2CCOCC2)n1
A. 0.0

----------
System: LOX IMVI melanoma
Assay: NCI-60 one-dose screen, 48 h (100 = growth as untreated, 0 = no growth, -100 = all killed)
Conditions: 10 µM unless noted
This is part of a sample that, as a whole, favours compounds with a hit. Of some 83,000 tested, about 20% had one in any assay.
Give growth for every item shown.
One number for each entry, in %.

Past entries and their recorded results:
>>> df
                                   compound  output_unit  recorded_measurement
0  O=C1/C(=C/c2cccc3c2OCO3)Cc2c(F)cc(Br)cc21            %                  99.8
1  COc1ccc2[nH]c(O)c(N=NC(=O)c3ccc4nc(-c5ccc(Cl)cc5)[nH]c4c3)c2c1            %                  24.6
2  CN1CCc2c(sc3ncnc(N/N=C/c4cccc(Cl)c4Cl)c23)C1            %                 -82.5
3   Clc1ccc(Nc2nnc(-c3c[nH]c4ccccc34)o2)cc1            %                  58.1
4  O=C(COc1ccc(/C=C2/C(=O)Nc3ccc(Cl)cc32)cc1)Nc1ccc(Br)cc1            %                 -89.4

Could you tell me growth for each of these compounds? They are listed below.
1. Cc1cnc2ccc(Oc3ccccc3-c3ccccc3)nn12
2. Cc1cc(N=C(N)c2ccccc2)ccc1OCCCCCCCCn1ccnc1
3. CCC1(OC(=O)c2ccccc2SSCCOC(=O)CCCCC2SCC3NC(=O)NC32)C(=O)OCc2c1cc1n(c2=O)Cc2cc3ccccc3nc2-1 (stereo unspecified)
4. Cc1ccc(N=Nc2c(N)nn3c(-c4cc5ccccc5oc4=O)ccnc23)cc1

A.
1. 97.9
2. -80.7
3. 33.9
4. 36

----------
Test system: COLO 205 colon
Experiment: NCI-60 one-dose screen, 48 h (100 = growth as untreated, 0 = no growth, -100 = all killed)
Conditions: 10 µM unless noted
Experimental: Cells are grown in 96 well plates and exposed to the test compound for 48 hours. Compounds are tested at a single concentration, which is 10^-5 M for most compounds. The reported endpoint is percent growth (GI% or GIPRCNT), where numbers from 0 - 100% represent growth inhibition, and numbers from -100% - 0 represent cell death. For example, a value of 40 represents 60% growth inhibition. A value of 0 means no net growth occurred over the course of the experiment. […]
This is part of a sample that, as a whole, favours compounds with a hit. Of some 83,000 tested, about 20% had one in any assay.
quantity: growth (%)
Give bare numbers, in %.

For each entry beneath this line, provide reported growth.
1. COc1cc(CNC(=O)C[C@H](C)CCC=C(C)C)ccc1OCc1cn(-c2ccc(Br)cc2)nn1
2. Cc1ccc(C(=O)Nc2cc(-n3ccnc3C)cc(C(F)(F)F)c2)cc1C#Cc1cnc2cccnn12

A.
1. 113
2. -19.9

Hello, I would appreciate it if you could give growth for each entry below.
1. O=C(N/N=C/c1ccc(B(O)O)s1)c1[nH]c2ccc(Br)cc2c1-c1ccccc1
2. N#Cc1c(NC(=O)N2CCOCC2)n(-c2ccc(OC(F)(F)F)cc2)c2cc(F)ccc12
3. COc1ccc(-c2cc(-c3cc(OC)c(OC)c(OC)c3)[nH]c(=O)c2C#N)cc1
4. COC(=O)c1c(C(=O)OC)c2c3ccccc3c3ccccc3n2c1C(=O)C(C)(C)C
5. Clc1ccc(-c2nc3ccc(-c4nnc(SCc5ccccc5)o4)cc3[nH]2)cc1

A.
-81.8
108
130
80.1
55.3

For every listed record, write down its growth.
1. COc1ccc(NC(=O)Nc2nc3ccc([N+](=O)[O-])cc3s2)cc1
2. O=C1CCC(N2C(=O)c3cccc(NCCCCCC(=O)N4CCN(c5ccc6nc7c(nc6c5C(F)(F)F)C(=O)c5ncccc5C7=O)CC4)c3C2=O)C(=O)N1 (centres undefined)

A.
1. 67.9
2. -75.9

----------
System: SR leukemia
Test: NCI-60 one-dose screen, 48 h (100 = growth as untreated, 0 = no growth, -100 = all killed)
Conditions: 10 µM unless noted
The panel holds about 83,000 compounds, 20% with a hit somewhere; the sample as a whole holds those more often.
quantity: growth (%)
Answers are plain numbers, in %.

Below, 8 molecules whose answers are already recorded.
>>> print(df.to_string())
                                   molecule  quantity  recorded_measurement
0  COc1ccc(SC2c3cc(OC)ccc3Oc3nc(N)c(C#N)c(N)c32)cc1 (centres undefined)    growth                  29.5
1  O=C(OCCOCCO)N(c1cccc(Br)c1)c1nc(SCCN2CCOCC2)nc2c1cnn2CC(Cl)c1ccc(Br)cc1 (centres undefined)    growth                 -27.8
2  COC(=O)c1cccc(Oc2ccc(NC(=O)Nc3cc(C(F)(F)F)ccc3F)cc2)c1    growth                  26.9
3  O=C1Nc2cc(-c3ccc(NS(=O)(=O)c4ccc(-c5ccccc5)cc4)cc3)ccc2/C1=C/c1ccc[nH]1    growth                 -33.1
4  C=CC(=O)Nc1ccc(C(=O)/C=C/c2ccc(N(C)C)cc2)c(O)c1    growth                  2.78
5  c1ccc(CSc2nnc(-c3ccc4nc(-c5ccccc5)[nH]c4c3)o2)cc1    growth                  63.6
6  COc1cc(/C=N/NC(=O)c2ccc(OCc3nc4ccc(Cl)cc4[nH]3)cc2)cc(OC)c1OC    growth                    33
7  Nc1nn2c(-c3cc4cc(Br)ccc4oc3=O)ccnc2c1N=Nc1ccccc1    growth                  1.69

API: the following record is the query input.
Q. // lookup growth | system=SR leukemia | key= COc1cc(CNC(=O)C[C@H](C)CCC=C(C)C)ccc1OCc1cn(-c2cccc(C(F)(F)F)c2)nn1
A. 41.5
